Experiment: Inhibition of partially purified preparation of Inosine-5'-monophosphate dehydrogenase from P388 leukemic cells with enzymatically synthesized dinucleotide
Property label: Ki (nM)
One number for each entry, in nM.

INPUT: For the compound "NC(=O)c1csc([C@H]2O[C@@H](COP(=O)(O)OP(=O)(O)OC[C@H]3O[C@@H](n4cnc5c(N)ncnc54)[C@H](O)[C@@H]3O)[C@H](O)[C@@H]2O)n1" , give its reported Ki.
OUTPUT: 300
